Data provenance: patent US20080044360A1

# Study System: T1, rat collagen, acid soluble, type I, rat tail (Upstate 08-115) (rat, UniProt P02454 152-1207; P02466 86-1125)
# T1 construct: tissue extract, gelled and dried in wells; also called dried rat collagen
# T1 sequence (P02454 152-1207, chain 1 of 2): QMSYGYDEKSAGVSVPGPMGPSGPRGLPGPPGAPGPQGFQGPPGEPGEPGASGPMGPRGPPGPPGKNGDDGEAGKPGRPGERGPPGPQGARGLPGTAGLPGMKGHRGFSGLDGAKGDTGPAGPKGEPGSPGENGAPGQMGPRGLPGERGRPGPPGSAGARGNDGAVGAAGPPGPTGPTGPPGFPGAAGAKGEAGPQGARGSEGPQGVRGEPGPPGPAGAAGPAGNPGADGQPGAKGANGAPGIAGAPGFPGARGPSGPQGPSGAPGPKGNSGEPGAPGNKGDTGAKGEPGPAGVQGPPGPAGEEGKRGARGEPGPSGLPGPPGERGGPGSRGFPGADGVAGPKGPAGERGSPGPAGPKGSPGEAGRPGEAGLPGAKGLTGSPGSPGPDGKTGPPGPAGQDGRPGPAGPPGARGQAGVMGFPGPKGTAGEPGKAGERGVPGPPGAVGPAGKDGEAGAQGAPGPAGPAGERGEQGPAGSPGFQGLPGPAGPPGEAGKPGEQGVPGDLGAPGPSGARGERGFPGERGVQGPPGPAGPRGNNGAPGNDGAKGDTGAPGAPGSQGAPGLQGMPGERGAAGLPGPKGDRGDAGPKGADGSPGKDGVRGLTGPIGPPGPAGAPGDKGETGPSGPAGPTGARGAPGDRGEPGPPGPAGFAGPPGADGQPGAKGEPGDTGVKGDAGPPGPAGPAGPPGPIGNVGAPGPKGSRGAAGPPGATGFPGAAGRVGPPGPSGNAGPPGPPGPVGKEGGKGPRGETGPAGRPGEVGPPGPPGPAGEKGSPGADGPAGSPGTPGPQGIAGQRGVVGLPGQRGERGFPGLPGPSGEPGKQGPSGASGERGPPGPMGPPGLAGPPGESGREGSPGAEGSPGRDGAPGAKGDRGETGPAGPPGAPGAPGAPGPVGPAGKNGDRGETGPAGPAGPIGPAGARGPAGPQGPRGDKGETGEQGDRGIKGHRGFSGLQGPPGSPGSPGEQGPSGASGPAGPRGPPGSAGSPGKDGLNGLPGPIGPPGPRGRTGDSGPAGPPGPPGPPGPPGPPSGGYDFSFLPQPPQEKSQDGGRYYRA
# T1 sequence (P02466 86-1125, chain 2 of 2): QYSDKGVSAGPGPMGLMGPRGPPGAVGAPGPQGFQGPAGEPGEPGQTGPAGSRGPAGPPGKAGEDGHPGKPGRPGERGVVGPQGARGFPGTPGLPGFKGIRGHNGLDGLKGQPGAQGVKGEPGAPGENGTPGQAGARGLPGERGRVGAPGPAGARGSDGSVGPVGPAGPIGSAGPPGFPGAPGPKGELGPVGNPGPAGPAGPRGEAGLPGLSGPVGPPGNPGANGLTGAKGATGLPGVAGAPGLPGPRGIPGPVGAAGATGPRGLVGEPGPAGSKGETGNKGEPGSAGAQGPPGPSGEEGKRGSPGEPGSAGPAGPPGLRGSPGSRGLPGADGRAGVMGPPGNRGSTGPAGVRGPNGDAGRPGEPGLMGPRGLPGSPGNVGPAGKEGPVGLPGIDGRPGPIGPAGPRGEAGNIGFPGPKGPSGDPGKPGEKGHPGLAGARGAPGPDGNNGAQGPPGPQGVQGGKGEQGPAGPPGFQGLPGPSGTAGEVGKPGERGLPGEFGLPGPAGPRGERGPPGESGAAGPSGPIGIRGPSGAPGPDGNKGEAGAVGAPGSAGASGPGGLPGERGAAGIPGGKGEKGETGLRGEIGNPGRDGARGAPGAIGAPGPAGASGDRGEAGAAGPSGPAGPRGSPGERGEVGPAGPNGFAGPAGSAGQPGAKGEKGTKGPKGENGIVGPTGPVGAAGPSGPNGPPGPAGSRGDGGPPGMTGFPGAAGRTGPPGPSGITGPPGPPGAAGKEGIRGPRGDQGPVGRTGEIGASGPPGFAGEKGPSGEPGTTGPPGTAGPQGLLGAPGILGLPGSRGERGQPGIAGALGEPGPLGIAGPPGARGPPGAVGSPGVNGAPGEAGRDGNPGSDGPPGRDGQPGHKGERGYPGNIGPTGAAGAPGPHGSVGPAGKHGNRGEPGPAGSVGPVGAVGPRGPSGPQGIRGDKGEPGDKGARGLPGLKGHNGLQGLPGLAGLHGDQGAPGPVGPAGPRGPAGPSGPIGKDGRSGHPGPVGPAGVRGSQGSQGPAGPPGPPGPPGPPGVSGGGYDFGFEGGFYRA
# Assay Protocol: dried collagen assay
Bridge positions count the residues as written; N and C are the ends. Square brackets hold non-standard residues; d marks the D form. Primed or numbered codes have the meaning given here. Side chains are listed from the residue outwards. Ends that are not written are not given here. Gd^D = GdDOTAGA (gadolinium DOTAGA chelate); Gd^G = not defined here; Gd^T″ = GdDTPA-thiourea
Response field label takes T when % bound is strictly below 40% and F in all other cases.

## Task # strict comparison: is reported % bound < 40%? input = {Gd^T″}-GK([Gly-Gd^T″])WHCTTLFPHHYCLYG (disulfide 5-14 (inferred)) [Compound ID 930]
## Result F

## Task Confirm or reject: % bound of {Gd^D}-K(Gd^D)K(Gd^D)LWHCYTYFPHHYCVYG (disulfide 6-15 (inferred)) [Compound ID 1017] lies strictly below 40%
## Result T

## Task Could you please tell me whether % bound recorded for {Gd^T″}-GK([Gly-Gd^T″])WHCYTK(Gd^T″)FPHHYCVYY (disulfide 5-14 (inferred); not fully specified (C-terminus)) [Compound ID 979] is less than 40%?
## Result F

## Task State whether 40% exceeds % bound recorded for {Gd^G}-DWTCS[dR]DEYTWHCNYE (disulfide 4-13 (inferred); not fully specified (C-terminus); reading uncertain) [Compound ID 821] .
## Result T
